System: KM12
Experiment: NCI tumour cell line growth inhibition, 48 h
Active and inactive are the calls of the source. Cut-off read from the data, not from the text of the source: active = GI50 up to about 1.1 µM and inactive = higher.
Classes to choose from: Y for active, N for inactive

>>> answer_label("Nc1c2c(nc3ccccc13)-c1ccccc1CCC2")
"N"
>>> answer_label("CCN(CC)c1ccc2cc(-c3nc4ccccc4n3C)c(=O)oc2c1")
"Y"
>>> answer_label("S=C1N=C2C(=N1)n1c3c(c4ccccc41)CCCC23 (stereo unspecified)")
"N"
>>> answer_label("CCCCN(CCCC)CC(C(=O)Nc1ccccc1)/C(C)=N\\NC(=O)c1ccncc1 (stereo unspecified)")
"N"
>>> answer_label("CC(=O)/C(=C(/Br)I)c1ccccc1")
"N"

Would you kindly look at the next entry?
input: // param item: `O=C1CCCCC/C1=C\c1cccc(F)c1` ; yields the recorded call
output: N

----------
Tested on: SF-539
Experiment: NCI tumour cell line growth inhibition, 48 h
Calls of active or inactive are those of the source. Cut-off read from the data, not from the text of the source: active = GI50 up to about 1.1 µM and inactive = higher.
Result category, one only: active, inactive

Example results:
>>> answer_label("CC1CC[C@@H](C(C)C)[C@H](Oc2nnc(C3OC(CO)C(O)C3O)o2)C1 (some centres undefined)")
"inactive"
>>> answer_label("Cc1ccc(NC(=S)NNC(=O)c2cc(-c3ccccc3)nc3ccccc23)cc1C")
"inactive"
>>> answer_label("CCCCn1c(-c2ccccc2)cs/c1=N\\N=C1C=C(C(C)(C)C)C(=O)C(C(C)(C)C)=C1")
"inactive"
>>> answer_label("COc1ccc(C(=O)/C=C/c2ccc(OCCCOc3ccc(/C=C/C(=O)c4ccc(OC)c(OC)c4)cc3)cc2)cc1OC")
"inactive"

input: Which outcome was entered for the molecule O=C(CC1(O)C(=O)Nc2c(Cl)ccc(Cl)c21)c1ccc2ccccc2c1 (centres undefined) in this test?
output: inactive

input: Hey, what did the test say about `Cc1nc2c(=O)n3c4c(cccc4c2o1)CCC3` ?
output: inactive

input: Look up the recorded call for COc1ccc(-c2c3c(n(C4OC(CO)C(O)C(O)C4O)c(=S)c2C#N)CCC3)cc1 (centres undefined) in this test.
output: inactive

input: In this assay, the call recorded for CCCCCCOP(=O)(OCCCCCC)OC(C(=O)OC)C(F)(F)F (centres undefined) was what?
output: inactive

input: # lookup: test call for COc1cc2c3cc1Oc1c(OC)c(OC)cc4c1C(Cc1ccc(O)c(c1)Oc1ccc(cc1)CC3N(C)CC2)CN(C)C4 (centres undefined)
output: inactive

----------
Test system: 786-0
Test: NCI tumour cell line growth inhibition, 48 h
Activity calls are given as the source filed them. Cut-off read from the data, not from the text of the source: active = GI50 up to about 1.1 µM and inactive = higher.
property measured: GI50

// below: answered compounds
>>> observed_value("O=C1c2ccccc2C(=O)c2cc3c(cc21)C[S+]([O-])C3")
"> 100 µM (inactive)"
>>> observed_value("COC(=O)c1c(C)[nH]c2c1C(=O)C(=O)c1nc(C)c(C)nc1-2")
"10.4 µM (inactive)"
>>> observed_value("Oc1c(Br)cc(/C=C/c2ccnc(/C=C/c3cc(Br)c(O)c(Br)c3)c2)cc1Br")
"18.2 µM (inactive)"
>>> observed_value("C=C(CCC(C(=O)O)C1CCC2(C)C3=C(CCC12C)C1(C)CCC(O)C(C)(C)C1CC3)C(C)C (stereo not drawn)")
"45.1 µM (inactive)"
>>> observed_value("Cc1cn(C2CC(N/C(=N/C#N)NCC3OC(n4cnc5c(N)ncnc54)CC3O)C(CO)O2)c(=O)[nH]c1=O (stereo not drawn)")
"> 100 µM (inactive)"
>>> observed_value("CC(=O)N/C(=C\\c1ccc(Cc2nc3c([nH]2)C(=O)c2ccccc2C3=O)cc1)c1nc2c([nH]1)C(=O)c1ccccc1C2=O")
"> 100 µM (inactive)"

Give measured GI50 for every item shown.
1. CCOC(=O)NC(=O)c1cn(CCN2CCN(C(=O)NCCCCCCNC(=O)N3CCN(CCn4cc(C(=O)NC(=O)OCC)c(=O)[nH]c4=O)CC3)CC2)c(=O)[nH]c1=O
2. COC(=O)c1cc(C)ccc1C1CN=NC12Cc1c(C)cc(C)cc1C2=O (stereo not drawn)

output:
1: > 100 µM (inactive); 2: 25.7 µM (inactive)
